biological target: σ70, native, untagged (pLN12), P00579
Sequence (P00579 whole entry): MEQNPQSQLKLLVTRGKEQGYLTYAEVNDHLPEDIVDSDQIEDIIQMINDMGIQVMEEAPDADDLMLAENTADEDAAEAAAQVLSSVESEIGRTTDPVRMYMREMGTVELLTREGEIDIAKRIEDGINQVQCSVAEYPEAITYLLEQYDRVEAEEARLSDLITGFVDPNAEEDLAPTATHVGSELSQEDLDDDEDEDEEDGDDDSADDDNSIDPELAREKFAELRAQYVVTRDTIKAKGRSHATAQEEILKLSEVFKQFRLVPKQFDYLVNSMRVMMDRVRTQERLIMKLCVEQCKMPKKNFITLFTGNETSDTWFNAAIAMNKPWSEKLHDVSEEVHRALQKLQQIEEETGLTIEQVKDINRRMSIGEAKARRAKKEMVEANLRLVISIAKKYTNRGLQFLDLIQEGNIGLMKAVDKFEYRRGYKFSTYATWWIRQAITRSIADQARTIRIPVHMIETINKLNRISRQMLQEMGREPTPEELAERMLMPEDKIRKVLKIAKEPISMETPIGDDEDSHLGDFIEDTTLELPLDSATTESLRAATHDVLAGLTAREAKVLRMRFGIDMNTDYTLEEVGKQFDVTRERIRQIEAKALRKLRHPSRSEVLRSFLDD
Recorded metric: Growth at 42° C. with plasmid β′ as sole source of β′ (strain RL602)

protein="β′ mutant L299D (protein) MKDLLKFLKAQTKTEEFDAIKIALASPDMIRSWSFGEVKKPETINYRTFKPERDGLFCARIFGPVKDYECLCGKYKRLKHRGVICEKCGVEVTQTKVRRERMGHIELASPTAHIWFLKSLPSRIGLLLDMPLRDIERVLYFESYVVIEGGMTNLERQQILTEEQYLDALEEFGDEFDAKMGAEAIQALLKSMDLEQECEQLREELNETNSETKRKKLTKRIKLLEAFVQSGNKPEWMILTVLPVLPPDLRPLVPLDGGRFATSDLNDLYRRVINRNNRLKRLLDLAAPDIIVRNEKRMDQEAVDALLDNGRRGRAITGS" endpoint_value=-
protein="β′ mutant R297L (protein) MKDLLKFLKAQTKTEEFDAIKIALASPDMIRSWSFGEVKKPETINYRTFKPERDGLFCARIFGPVKDYECLCGKYKRLKHRGVICEKCGVEVTQTKVRRERMGHIELASPTAHIWFLKSLPSRIGLLLDMPLRDIERVLYFESYVVIEGGMTNLERQQILTEEQYLDALEEFGDEFDAKMGAEAIQALLKSMDLEQECEQLREELNETNSETKRKKLTKRIKLLEAFVQSGNKPEWMILTVLPVLPPDLRPLVPLDGGRFATSDLNDLYRRVINRNNRLKRLLDLAAPDIIVRNEKLMLQEAVDALLDNGRRGRAITGS" endpoint_value=-
protein="β′ mutant E301K (protein) MKDLLKFLKAQTKTEEFDAIKIALASPDMIRSWSFGEVKKPETINYRTFKPERDGLFCARIFGPVKDYECLCGKYKRLKHRGVICEKCGVEVTQTKVRRERMGHIELASPTAHIWFLKSLPSRIGLLLDMPLRDIERVLYFESYVVIEGGMTNLERQQILTEEQYLDALEEFGDEFDAKMGAEAIQALLKSMDLEQECEQLREELNETNSETKRKKLTKRIKLLEAFVQSGNKPEWMILTVLPVLPPDLRPLVPLDGGRFATSDLNDLYRRVINRNNRLKRLLDLAAPDIIVRNEKRMLQKAVDALLDNGRRGRAITGS" endpoint_value=+
protein="β′ mutant V272D (protein) MKDLLKFLKAQTKTEEFDAIKIALASPDMIRSWSFGEVKKPETINYRTFKPERDGLFCARIFGPVKDYECLCGKYKRLKHRGVICEKCGVEVTQTKVRRERMGHIELASPTAHIWFLKSLPSRIGLLLDMPLRDIERVLYFESYVVIEGGMTNLERQQILTEEQYLDALEEFGDEFDAKMGAEAIQALLKSMDLEQECEQLREELNETNSETKRKKLTKRIKLLEAFVQSGNKPEWMILTVLPVLPPDLRPLVPLDGGRFATSDLNDLYRRDINRNNRLKRLLDLAAPDIIVRNEKRMLQEAVDALLDNGRRGRAITGS" endpoint_value=-

These measurements were taken from patent US20030104423.
